# Test system: MILI (PIWIL2) piRISC loaded with Kctd7 piRNA (26 nt);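 also: 1 nM active piRISC with 0.1 nM target library at 33 °C single turnover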
# method_notes: pre-steady-state target cleavage rate (min^-1); MIWI and MILI are mouse PIWI proteins and EfPiwi is from a freshwater sponge; tags in brackets are library labels; higher = faster piRNA-guided slicing of the target;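 also: 1 nM active piRISC with 0.1 nM target library at 33 °C single turnover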
# test_settings: guide: Kctd7 piRNA 5'p-UGUUAAUCUCUCAGAGAAGGUGACAG; auxiliary factor: 500 nM mouse GTSF1
The full ranking holds about 3,700 sequences; the median of “pre-steady-state target cleavage rate” is about 0.02, and the highest 2% start at about 0.23. The list comes from a sample in which the highest values are over-represented; it also holds close analogues and randomly drawn sequences.
Param threshold (0.09) applies to pre-steady-state target cleavage rate; output true when value >= threshold, false when value < threshold.

Input line: Assess whether reported pre-steady-state target cleavage rate for UAGUGAGUGACCUUCUCUGAGAGAUAAACA sits at 0.09 or higher.
Output line: false

Input line: Can you check UAGUCUGUCACCUCUCUGAGAGAUUAACA next?
Output line: true

Input line: Field entry: UAGUGAGUCACCUUCUCUGCGAGAUUAACA
Output line: true

Input line: Quick one: UAGUGACAGACCUUGUCUGACAGAUUAACA
Output line: false

Input line: // same read-out, input: UAGUCUGUCACCUUCUCUGAGAGCUUAACA
Output line: true

Input line: Also need UAGUGACAGUCCUUCUCUGAGAGAUUACCA , thanks.
Output line: false

Input line: And what about the sequence UAGUGACACACCUUCUCUGAGAGAUUACA ?
Output line: false

Input line: Moving on to the next sequence: UAGUGACAGACCUUCUCUGAGAGAUUCAACA
Output line: true

Input line: Now the same for UAGUGACACAGGUUCUCUGAGAGAUUAACA
Output line: false

Input line: Please answer likewise for UAGUGACUCACCUUCUCUGAGAGAUUCAACA
Output line: true

Input line: Next up: UAGUGACAGUCCUUCUCUGAGGAGAUUAACA
Output line: false

Input line: Entry to check: UAGUCUGUCACCUUCUCAGAGAGAAUAACA
Output line: false

Input line: Another: UAGUGUGUCACCUACACUGAGAGAUUAACA
Output line: true

Input line: // same read-out, input: UAGUGAGUCACCUUCUCAGAGAGAUUUACA
Output line: true

Input line: Next sequence up: UAGUGACUCACCUUCUCUGAGAGAUUUUCA
Output line: false

Input line: Next entry: UAGUGACUCACCUUCUCUGAGAGAUGUAACA
Output line: true

Input line: Ok, now UAGUCUGUCACCUUCUCUGAGAGUUAACA
Output line: true

Input line: Lookup UAGUGUGAGACCUUCUCUGAGAGAUUAACA
Output line: true

Input line: Next entry: UAGUGACACACCUUCUCUGAGAGAUUCACA
Output line: true

Input line: Continue with UAGUGAGUCACGUUCUCUGUGAGAUUAACA
Output line: false

Input line: What about UAGUGACAGACCUUCUGUGAGAGAUUAACA ?
Output line: false

Input line: Again, but for UAGUCUGUCACCUUCUCUGAGAGAUUAACC [g2:g26:cont:t1C]
Output line: true

Input line: Try the sequence UAGUGACAGUCCUUCUCAGAGAGAUUUACA
Output line: false

Input line: Next record, please: UAGUCUCUCACCUUCUCUGAGUGAUUAACA
Output line: false

Input line: Then what about the sequence UAGUGACACACCUUCUCUGAGAGAUUAACA [g2:g22:cont:t1A] ?
Output line: true

Input line: // next record UAGUGACACACCUUCUCUGAGAGAUUUAACA
Output line: true

Input line: Try this sequence next: UAGUGUGUCACCUUCUGUGUGAGAUUAACA
Output line: false

Values were extracted from the supplement of paper PMC10338343.
